# Assay Remarks: self-splicing fitness, log relative to wild type (ln ratio); higher = more splicing; Tetrahymena group I intron in knt gene, E. coli kanamycin selection, DiMSum; sequences stand for … in CUCUCU…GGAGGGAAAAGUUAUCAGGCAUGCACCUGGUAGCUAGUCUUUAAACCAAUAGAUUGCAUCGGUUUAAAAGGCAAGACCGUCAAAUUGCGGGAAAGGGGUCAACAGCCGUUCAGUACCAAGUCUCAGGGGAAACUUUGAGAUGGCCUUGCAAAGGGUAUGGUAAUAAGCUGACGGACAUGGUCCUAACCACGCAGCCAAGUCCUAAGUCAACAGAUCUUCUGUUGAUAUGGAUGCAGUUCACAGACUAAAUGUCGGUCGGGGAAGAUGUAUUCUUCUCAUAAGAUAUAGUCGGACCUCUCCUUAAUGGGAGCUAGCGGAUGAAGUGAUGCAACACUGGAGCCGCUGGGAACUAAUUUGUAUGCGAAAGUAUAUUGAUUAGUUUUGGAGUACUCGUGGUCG;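 further: selection with 25 µg/mL kanamycin versus none on LB agar overnight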
# Experimental Setup: 37 °C
Lab note: anything with self-splicing fitness (ln) at or over -2 counts as met; the rest go in not met.

Does the sequence CACGAGCAAUAUUACGGAGA have recorded self-splicing fitness (ln) that is -2 or more? not met

Does the sequence GAGUAGCAAUAUUACGACCU have recorded self-splicing fitness (ln) that is -2 or more? met

Does the sequence AACCAGCAAUAUUACGAGUA have recorded self-splicing fitness (ln) that is -2 or more? met

Does the sequence CUAGAGCAAUAUUACGCGUU have recorded self-splicing fitness (ln) that is -2 or more? not met

Does the sequence UGGGAGCAAUAUUACGAAGA have recorded self-splicing fitness (ln) that is -2 or more? not met

Does the sequence CUGUAGCAAUAUUACGCCGU have recorded self-splicing fitness (ln) that is -2 or more? not met

Does the sequence AUGCAGCAAUAUUACGUCGC have recorded self-splicing fitness (ln) that is -2 or more? not met

Does the sequence GCUGAGCAAUAUUACGAAUA have recorded self-splicing fitness (ln) that is -2 or more? met

Does the sequence CAGCAGCAAUAUUACGUUCC have recorded self-splicing fitness (ln) that is -2 or more? not met

Does the sequence GGUGAGCAAUAUUACGUUAC have recorded self-splicing fitness (ln) that is -2 or more? met

Does the sequence UUCUAGCAAUAUUACGCGCA have recorded self-splicing fitness (ln) that is -2 or more? met

Does the sequence CGUCAGCAAUAUUACGUCCC have recorded self-splicing fitness (ln) that is -2 or more? met

Does the sequence CGUCAGCAAUAUUACGCGCU have recorded self-splicing fitness (ln) that is -2 or more? not met

Does the sequence AGCUAGCAAUAUUACGAAAA have recorded self-splicing fitness (ln) that is -2 or more? met

Does the sequence GGCAAGCAAUAUUACGGGCA have recorded self-splicing fitness (ln) that is -2 or more? met

Does the sequence UCGGAGCAAUAUUACGUGCG have recorded self-splicing fitness (ln) that is -2 or more? met

Does the sequence UGCAAGCAAUAUUACGUUAA have recorded self-splicing fitness (ln) that is -2 or more? met

Does the sequence CUACAGCAAUAUUACGAGCA have recorded self-splicing fitness (ln) that is -2 or more? not met

Does the sequence GUACAGCAAUAUUACGCACU have recorded self-splicing fitness (ln) that is -2 or more? met

Does the sequence UAGUAGCAAUAUUACGCACC have recorded self-splicing fitness (ln) that is -2 or more? met

Does the sequence ACACAGCAAUAUUACGGGUG have recorded self-splicing fitness (ln) that is -2 or more? met

Does the sequence UGCCAGCAAUAUUACGGUUC have recorded self-splicing fitness (ln) that is -2 or more? met

Does the sequence GCGGAGCAAUAUUACGGGGA have recorded self-splicing fitness (ln) that is -2 or more? not met

Does the sequence UUGAAGCAAUAUUACGCGAA have recorded self-splicing fitness (ln) that is -2 or more? met

Does the sequence AGUAAGCAAUAUUACGUAGU have recorded self-splicing fitness (ln) that is -2 or more? not met

Does the sequence GCUUAGCAAUAUUACGUCUG have recorded self-splicing fitness (ln) that is -2 or more? met

Does the sequence UGUUAGCAAUAUUACGGUGU have recorded self-splicing fitness (ln) that is -2 or more? met

Does the sequence CAGCAGCAAUAUUACGUUCA have recorded self-splicing fitness (ln) that is -2 or more? met

Does the sequence CCCCAGCAAUAUUACGGGCU have recorded self-splicing fitness (ln) that is -2 or more? not met

Does the sequence CGAAAGCAAUAUUACGAUAG have recorded self-splicing fitness (ln) that is -2 or more? met

Does the sequence CACUAGCAAUAUUACGAGAU have recorded self-splicing fitness (ln) that is -2 or more? not met

Does the sequence ACUAAGCAAUAUUACGUAAG have recorded self-splicing fitness (ln) that is -2 or more? met

Does the sequence UAGUAGCAAUAUUACGACGG have recorded self-splicing fitness (ln) that is -2 or more? met

Does the sequence AUUAAGCAAUAUUACGUACG have recorded self-splicing fitness (ln) that is -2 or more? met

Does the sequence UAGCAGCAAUAUUACGCUUC have recorded self-splicing fitness (ln) that is -2 or more? not met

Does the sequence CUGGAGCAAUAUUACGAUCG have recorded self-splicing fitness (ln) that is -2 or more? met

Does the sequence UCCCAGCAAUAUUACGCAAU have recorded self-splicing fitness (ln) that is -2 or more? not met

Does the sequence CUCGAGCAAUAUUACGUUUG have recorded self-splicing fitness (ln) that is -2 or more? not met

Does the sequence GUUAAGCAAUAUUACGGGUG have recorded self-splicing fitness (ln) that is -2 or more? not met

Does the sequence CCAUAGCAAUAUUACGCGCG have recorded self-splicing fitness (ln) that is -2 or more? met

Does the sequence AUUAAGCAAUAUUACGCCUG have recorded self-splicing fitness (ln) that is -2 or more? met

Does the sequence GGCCAGCAAUAUUACGCAAG have recorded self-splicing fitness (ln) that is -2 or more? not met

Does the sequence CUCAAGCAAUAUUACGCCGA have recorded self-splicing fitness (ln) that is -2 or more? met

Does the sequence UGUAAGCAAUAUUACGAGGC have recorded self-splicing fitness (ln) that is -2 or more? met

Does the sequence AUGCAGCAAUAUUACGCAUU have recorded self-splicing fitness (ln) that is -2 or more? not met

Does the sequence GCUCAGCAAUAUUACGGACG have recorded self-splicing fitness (ln) that is -2 or more? met

Does the sequence CUGCAGCAAUAUUACGUAAG have recorded self-splicing fitness (ln) that is -2 or more? met

Does the sequence CACUAGCAAUAUUACGCAAA have recorded self-splicing fitness (ln) that is -2 or more? not met
